REPORTED PROPERTY: melting point

Here are 2 molecules together with their reported answers.
{"columns": ["MOLECULE", "melting point"],
 "data": [
  ["O=[N+]([O-])c1cccnc1Nc1ccc(F)cc1F", "110 °C"],
  ["CC(C)c1cccc(-c2ccc(F)cc2)c1/C=C/CO", "71 to 72 °C"]
]}

Item under review: `CCCCC(=O)NCc1ccc(C#CCCOCCCCCCNCc2ccccc2)cc1` . Reported melting point?
66 to 67 °C

Item under review: CC(C#N)CCCC(N(C)C)C1(c2ccc(Cl)cc2)CCC1 (stereo not given) . Reported melting point?
54 to 56 °C

Item under review: `CCCC(=O)C(=CNc1ccccc1F)C(=O)OCC` . Reported melting point?
60 to 62 °C

Item under review: `CN1C(C(=O)Nc2ccccc(O)c2=O)=C(O)c2ccccc2S1(=O)=O` . Reported melting point?
294 to 296 °C

Item under review: COC(=O)c1ccc(CC(C)NCC(O)c2ccc(O)c(CO)c2)c(OC)c1 (stereo not given) . Reported melting point?
96 to 105 °C

Item under review: `O=[N+]([O-])c1ccc(N2CCC2)nc1` . Reported melting point?
132 to 134 °C

Item under review: `COc1ccc(C=CC(=O)O)cc1-c1cc2c(cc1OCCCCCCCC(=O)O)C(C)(C)CCC2(C)C` . Reported melting point?
212 to 214 °C

Item under review: `CN(Cc1ccc(F)cc1)C1CCN(c2ccc(C#N)cc2)CC1` . Reported melting point?
100 to 101 °C

Item under review: `CNC(=S)c1cnn(-c2cccc(Cl)c2)c1Cl` . Reported melting point?
128 to 130 °C

Item under review: `COc1ccccc1N1CCN(Cc2ccc(NC(=O)C3=Cc4cc(-c5ccc(C)cc5)ccc4CC3)cc2)CC1` . Reported melting point?
202 to 205 °C

Item under review: `CCN1C(=O)C(C)(C)C(=O)N(C)c2cc(CN(CCn3ccc4oc(C)cc4c3=O)c3cccc4ncccc34)ccc21` . Reported melting point?
166 to 168 °C

Item under review: `O=C(CCCCCCOc1ccc(OCc2ccccc2)cc1)c1nnc(COCc2ccccc2)o1` . Reported melting point?
95 to 97 °C

Item under review: `CCCc1cc2ccccn2c1C(C)=O` . Reported melting point?
71 to 72 °C

Item under review: `COC(=O)[C@H](Cc1ccc(NC(=O)c2c(Cl)cccc2Cl)cc1)NC(=O)c1ccc(C(=O)Nc2cccc(O)c2)cc1Cl` . Reported melting point?
230 to 232 °C

Item under review: `CC(=O)Nc1ccc(N2CCNC2=O)cc1` . Reported melting point?
270 to 273 °C

Item under review: CC(C)(C)OC(=O)NC(COc1noc2ccc(Cl)cc12)Cc1cc(O)no1 (stereo not given) . Reported melting point?
159 to 161 °C

Item under review: `Nc1cc(F)cc2c(Cl)ccnc12` . Reported melting point?
98 to 103 °C

Item under review: COc1nc2ccc(Br)cc2cc1C(c1ccccc1)n1ccnc1 (stereo not given) . Reported melting point?
161 to 162 °C

====

REPORTED PROPERTY: melting point

Here are 5 compounds together with their reported answers.
{"columns": ["COMPOUND", "melting point"],
 "data": [
  ["CCOC(=O)c1c(C(C)C)c(-c2ccc(F)cc2)cn1CC", "74 to 76 °C"],
  ["COC(=O)c1ccc2[nH]c(=O)n(Cc3ccc(OC)cc3)c(=O)c2c1", "235 to 237 °C"],
  ["COc1ccc(C(=O)CCC(=O)N[C@@H](C)C(=O)O)cc1F", "126 to 128 °C"],
  ["CC1(C)SC2C(NC(=O)Cc3ccccc3)C(=O)N2C1c1nnn[nH]1 (configuration not stated)", "168 to 170 °C"],
  ["C1CCN(ON2CCCC2)C1", "99 °C"]
]}

Item under review: `COc1ccc(OC)c(CNc2ccc3nc[nH]c(=O)c3c2)c1` . Reported melting point?
203 to 205 °C

Item under review: O=C(O)C(CC1CCCC1)c1ccc(S(=O)(=O)C2CCCC2)cc1 (configuration not stated) . Reported melting point?
165 to 167 °C

Item under review: C=C1CC2C(=O)C(c3c(CC)cc(C)cc3CC)=C(OCc3ccccc3)C2C1 (configuration not stated) . Reported melting point?
87 to 88 °C

Item under review: CS(=O)Cc1ccc2oc([N+](=O)[O-])c(-c3ccccc3)c2c1 (configuration not stated) . Reported melting point?
162 to 165 °C

Item under review: `COCc1cc2c(nc(C)n2C)c(O)c1CCC(=O)c1ccccc1C` . Reported melting point?
163 °C
